Record: IC50 reported on Matrix metalloproteinase-9 (Homo sapiens, UniProt P14780).
Sequence (P14780 whole entry): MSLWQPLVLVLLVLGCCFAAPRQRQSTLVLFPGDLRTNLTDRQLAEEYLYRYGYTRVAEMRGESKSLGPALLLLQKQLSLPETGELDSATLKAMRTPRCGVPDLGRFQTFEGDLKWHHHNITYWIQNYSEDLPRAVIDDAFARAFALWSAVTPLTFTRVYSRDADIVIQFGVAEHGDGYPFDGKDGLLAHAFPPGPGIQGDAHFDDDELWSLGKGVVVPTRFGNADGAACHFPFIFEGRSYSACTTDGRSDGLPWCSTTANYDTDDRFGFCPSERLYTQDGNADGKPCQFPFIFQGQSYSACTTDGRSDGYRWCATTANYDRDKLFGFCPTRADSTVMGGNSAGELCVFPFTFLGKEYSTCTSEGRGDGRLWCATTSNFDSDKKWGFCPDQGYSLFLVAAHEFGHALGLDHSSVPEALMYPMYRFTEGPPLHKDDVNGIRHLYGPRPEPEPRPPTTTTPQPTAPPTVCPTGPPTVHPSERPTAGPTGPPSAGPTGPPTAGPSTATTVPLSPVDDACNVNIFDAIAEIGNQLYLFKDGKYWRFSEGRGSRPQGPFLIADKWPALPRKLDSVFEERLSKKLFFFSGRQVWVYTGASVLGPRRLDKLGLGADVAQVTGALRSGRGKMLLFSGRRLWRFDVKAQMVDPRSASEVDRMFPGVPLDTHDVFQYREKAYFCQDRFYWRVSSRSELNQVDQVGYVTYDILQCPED
reported-endpoint: IC50 (pM)

# entry-smiles, reported-endpoint, reading
records = [
    ("COc1ccc(S(=O)(=O)N(Cc2ccc(OCCOCCOCCOCCn3cc(COCCOCCOCCOCCOCCF)nn3)cc2)[C@@H](C(=O)NO)C(C)C)cc1", "IC50", 3000),
    ("COc1ccc(S(=O)(=O)N(Cc2cn(CCOCCOCCOCCOS(=O)(=O)c3ccc(C)cc3)nn2)[C@@H](C(=O)NO)C(C)C)cc1", "IC50", 60),
    ("COc1ccc(S(=O)(=O)N(Cc2ccc(OCCOCCOCCOCCOCc3cn(CCF)nn3)cc2)[C@@H](C(=O)NO)C(C)C)cc1", "IC50", 600),
    ("COc1ccc(S(=O)(=O)N(Cc2cn(CCOCCOCCOCCF)nn2)[C@@H](C(=O)NO)C(C)C)cc1", "IC50", 50),
]
